B1: EPB41L3 (parent)
chain: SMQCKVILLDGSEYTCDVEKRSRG

Variants of: B1
method: protein stability index of a GFP-peptide fusion (GPS, HEK-293T) (PSI 1-6); higher = more stable;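 note: lentivirally expressed fusions sorted by FACS into six bins by GFP to DsRed ratio, PSI derived from sequencing read proportions per bin multiplied by bin number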
run-parameters: c terminus: a fixed tail appended

{"columns": ["chain", "protein stability index"],
 "data": [
  ["SMQCPVILLDGSEYTCDVEKRSRG", 3.85],
  ["SMQCKVILLDGSEYTCCVEKRSRG", 2.45],
  ["SMQCNVILLDGSEYTCDVEKRSRG", 3.06],
  ["SMVCKVILLDGSEYTCDVEKRSRG", 2.63],
  ["SMNCKVILLDGSEYTCDVEKRSRG", 2.76],
  ["SMQCKVILLDGSEYTCDVEKRSSG", 3.17],
  ["SMQCKVILLDGSEYTCDVEKRDRG", 2.52],
  ["SMQCKVILLDGVEYTCDVEKRSRG", 2.05],
  ["SMQCKVILEDGSEYTCDVEKRSRG", 4.28],
  ["SMQCKVILLDGSEYTADVEKRSRG", 2.95],
  ["SMQCKVILLDGSEYTCDVEKWSRG", 1.57],
  ["SMQCKVILLDGSEYTCDVAKRSRG", 2.17],
  ["SMQCKVILLDGSEFTCDVEKRSRG", 2.21],
  ["SMQCKVILLDQSEYTCDVEKRSRG", 2.87],
  ["SMQCKVILLDGSELTCDVEKRSRG", 1.84],
  ["SMQCKVILLDGSEYTCDVEKRSRY", 2.25],
  ["SMQCKVILYDGSEYTCDVEKRSRG", 2.41],
  ["SMQCKVILLDGSAYTCDVEKRSRG", 2.14],
  ["SMQCKVILLDGSEYTCDVHKRSRG", 1.73],
  ["SMQCKVILLDGSEYTCDVEKHSRG", 2.72],
  ["SQQCKVILLDGSEYTCDVEKRSRG", 3.64],
  ["SMQCKMILLDGSEYTCDVEKRSRG", 3.36]
]}
